system.name: stearoyl-CoA desaturase (SCD) (Rattus norvegicus)
Sequence (P07308 whole entry): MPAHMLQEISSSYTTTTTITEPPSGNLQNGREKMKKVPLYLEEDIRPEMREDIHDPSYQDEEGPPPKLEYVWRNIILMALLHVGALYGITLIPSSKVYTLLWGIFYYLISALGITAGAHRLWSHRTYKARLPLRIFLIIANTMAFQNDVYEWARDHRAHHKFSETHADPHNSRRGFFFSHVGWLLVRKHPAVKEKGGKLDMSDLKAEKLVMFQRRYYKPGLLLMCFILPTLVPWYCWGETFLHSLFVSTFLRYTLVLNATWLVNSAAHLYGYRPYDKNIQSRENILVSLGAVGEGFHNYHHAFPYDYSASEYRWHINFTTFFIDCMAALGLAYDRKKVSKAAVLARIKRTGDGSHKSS
assay.method.text: SCD assay, rat liver microsomes with [3H]stearoyl CoA (adapted from Talamo and Bloch)
condition.info: second table, same SCD assay
recorded.metric: pIC50
As a rule, pIC50 stands for the negative log10 of the concentration, concentration in M.

Consider the worked cases shown below.
CC(=O)NCCn1c(=O)c(-c2ccc(C)cc2)nc2ccc(NCc3cccc(C(F)(F)F)c3)nc21 [compound 26]	6.96
COc1ccc(-c2nc3ccc(NCc4cc(C(F)(F)F)ccc4F)nc3n(CCNC(C)=O)c2=O)cc1 [compound 21]	5.82
COc1ccc(-c2nc3ccc(NCc4ccc(Cl)c(Cl)c4)nc3n(C(C)CC(N)=O)c2=O)cc1 (stereo not shown) [compound 5]	7.28

# ---- query molecule ----
Input line: Record request: pIC50 value, item COc1ccc(-c2nc3ccc(NCc4cccc(OC(F)(F)F)c4)nc3n(CCNC(C)=O)c2=O)cc1 [compound 20]
Output line: 6.59
